test system: HOP-62 NSCLC; experiment: NCI tumour cell line growth inhibition, 48 h
Below is a list of entries, each paired with its recorded TGI value.

Check out these entries, answers already filled in.
CCN(CC)CCOc1ccc(/C(=C(\C)Cc2ccc(OC)cc2)c2ccc(O)cc2)cc1 :: 3.81 µM
CNc1ccc(C)cc1S(=O)(=O)c1ccccc1[N+](=O)[O-] :: > 100 µM
COC(=O)c1ccccc1/C=C1\Cc2ccc3c(c2C1=O)CCC3 :: > 100 µM

Q: Provide TGI value for the following compound: Oc1ccc(I)c2cccnc12
A: > 100 µM

Q: Return the recorded TGI value; entry: CC(=O)OC[C@@]1(C)[C@@H]2[C@@H]3[C@@]4(CO[C@]3(C)C(=O)[C@@]3(OC(C)=O)C[C@H](C)[C@H](OC(C)=O)[C@@H]3[C@H]4OC(C)=O)[C@H](OC(=O)c3ccccc3)C[C@@H]21
A: > 100 µM

Q: For the compound Cc1c(N)c(C#N)c2n(C)c3ncccc3n2c1=O , report TGI.
A: > 100 µM

Q: Name the recorded TGI of the item Cc1cc(C(O)CCCc2ccccc2)cc(C)c1O (stereo unspecified) in your answer.
A: > 100 µM

Q: Specify TGI for CC1=C(C)C2(C#N)C(=O)N3C(=NC(c4ccco4)NC3c3ccco3)C2(C#N)C(c2ccco2)N1 (stereo unspecified) and stop.
A: > 100 µM

---

# TGI listing for each entry below
system: IGROV1 ovarian; assay: NCI tumour cell line growth inhibition, 48 h

The following molecules have reported results that may help.
CCCN(CCCC(NC(C)=O)C(=O)NCc1ccccc1)C(=O)N(C)N=O (stereo unspecified) :: > 100 µM
COc1ncnc2c(Cl)c(C(O)c3ccccc3)c(Cl)cc12 (stereo unspecified) :: > 100 µM
CCCCCCCCCCCCCCCC(=O)OCC1OC(OCCCC)[C@H](O[C@@H]2OC(C)C(OC(=O)CCC)C(O)C2O)C(O)C1O (stereo partly specified) :: > 100 µM
O=C(O[C@H](/C=C/c1ccccc1)P1(=O)N(Cc2ccccc2)[C@H]2CCCC[C@@H]2N1Cc1ccccc1)c1ccccc1 :: 18.6 µM
CC1CCC2C(C)C(OC(=O)CCC(=O)O)OC3OC4(C)CCC1C32OO4 (stereo unspecified) :: 23.1 µM

Q: Using known records, supply TGI for CC1=C(C)C2(C#N)C(=O)N3C(=NC(c4ccco4)NC3c3ccco3)C2(C#N)C(c2ccco2)N1 (stereo unspecified)
A: > 100 µM

---

system: HCC-2998 colon; test: NCI tumour cell line growth inhibition, 48 h
observed property: TGI

For orientation, consider the following solved cases.
C#CC(O)/C=C/C(O)CCCC(O)CC#CC(O)C#CCCCCC(O)/C=C/CCCCCC(=O)CCCCCCCCCCCCCC(O)C(O)C#CC(=O)O (stereo not given) :: > 25 µM
COc1cc(C(=O)/C=C/c2cccnc2Nc2ccc(Cl)cc2)cc(OC)c1OC :: 2.89 µM
Cc1cc(NS(=O)(=O)c2ccc(NC(=O)c3cccc4c(Nc5ccc(S(=O)(=O)Nc6cc(C)on6)cc5)c5ccc(Cl)cc5nc34)cc2)no1 :: > 100 µM

Q: Look up and report measured TGI for this entry: COc1ccc(NC(=O)CSc2nc(C)nc3c2sc(=S)n3-c2ccccc2)cc1
A: > 10 µM

Q: Specify reported TGI for the compound shown: CCc1n[nH]c(=O)n1-n1c(C)ccc1C
A: > 100 µM

Q: Answer with the recorded TGI of c1ccc(C2=Nc3ccccc3N3CNN=C23)cc1 only.
A: > 100 µM

Q: Give recorded TGI. CC(=O)OC/C=C\Cn1ncc(=O)[nH]c1=O
A: 35 µM

Q: Specify TGI for c1ccc(CN2C3C4N(Cc5ccccc5)C2C2N(Cc5ccccc5)C(C(N2Cc2ccccc2)N4Cc2ccccc2)N3Cc2ccccc2)cc1 and stop.
A: > 100 µM

Q: Determine from records and report TGI for CCN(CC)Cc1cc(Nc2ccnc3ccc(OC)cc23)ccc1O
A: 7.1 µM

Q: Look up and state reported TGI for Nc1nc(N)c2c(Cl)c(CNc3ccc(Cl)c(Cl)c3)ccc2n1
A: 2.05 µM
